The following molecules are shown together with reported Efficacy values.
- tested.target: Estrogen receptor beta (Homo sapiens, UniProt Q92731)
- Sequence (Q92731 whole entry): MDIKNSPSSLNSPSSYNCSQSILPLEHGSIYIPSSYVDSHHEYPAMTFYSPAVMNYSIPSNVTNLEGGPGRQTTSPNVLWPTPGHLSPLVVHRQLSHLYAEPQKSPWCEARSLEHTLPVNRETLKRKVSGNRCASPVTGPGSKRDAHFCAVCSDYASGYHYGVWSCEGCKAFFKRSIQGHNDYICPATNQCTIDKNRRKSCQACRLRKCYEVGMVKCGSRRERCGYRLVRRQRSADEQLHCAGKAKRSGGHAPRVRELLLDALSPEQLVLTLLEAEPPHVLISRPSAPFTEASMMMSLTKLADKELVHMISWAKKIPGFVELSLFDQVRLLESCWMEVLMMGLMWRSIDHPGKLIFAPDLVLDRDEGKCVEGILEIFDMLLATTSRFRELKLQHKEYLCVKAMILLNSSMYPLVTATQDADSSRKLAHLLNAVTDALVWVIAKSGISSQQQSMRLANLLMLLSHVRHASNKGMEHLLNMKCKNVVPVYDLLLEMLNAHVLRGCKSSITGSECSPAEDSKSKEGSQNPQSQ
- test.details: Antagonist activity at ERbeta (unknown origin) expressed in HEK293T cells assessed as inhibition of 17beta-estradiol stimulated transcriptional activity after 24 hrs by dual luciferase reporter gene assay relative to 17beta-estradiol
- Assay type: cell-based
property.name: Efficacy (%)

>>> df
                              sample_smiles  quantitative_readout
0  Cc1cc(O)ccc1-c1cc(-c2ccc(OCCN3CCCC3)cc2)c(-c2ccc(O)cc2C)[se]1                   170
1  Cc1cc(O)ccc1-c1c[se]cc1-c1ccc(OCCN2CCCCC2)cc1C                  43.4
2  Oc1ccc(-c2cc(-c3ccc(OCCN4CCCCC4)cc3)c(-c3ccc(O)cc3)[se]2)cc1                  33.8
3  Oc1ccc(-c2ccc(-c3ccc(OCCN4CCCC4)cc3F)[se]2)c(F)c1                  92.1
4  Oc1ccc(-c2ccc(-c3ccc(OCCN4CCCC4)cc3)[se]2)cc1                  83.9
5  Oc1ccc(-c2c[se]cc2-c2ccc(OCCN3CCCC3)cc2)cc1                  46.7
6  Oc1ccc(-c2ccc(-c3ccc(OCCN4CCCCC4)cc3Cl)[se]2)c(Cl)c1                  24.9
7  Cc1cc(-c2c[se]cc2-c2ccc(OCCN3CCCCC3)c(C)c2)ccc1O                  30.3
8  Oc1ccc(-c2c[se]cc2-c2ccc(OCCN3CCCCC3)cc2Cl)c(Cl)c1                  37.7
